Here the recorded EC50 is given for each entry.
target: TEAD1 YAP50-100 (Homo sapiens, UniProt P28347)
Sequence (P28347 167-426 limits assumed): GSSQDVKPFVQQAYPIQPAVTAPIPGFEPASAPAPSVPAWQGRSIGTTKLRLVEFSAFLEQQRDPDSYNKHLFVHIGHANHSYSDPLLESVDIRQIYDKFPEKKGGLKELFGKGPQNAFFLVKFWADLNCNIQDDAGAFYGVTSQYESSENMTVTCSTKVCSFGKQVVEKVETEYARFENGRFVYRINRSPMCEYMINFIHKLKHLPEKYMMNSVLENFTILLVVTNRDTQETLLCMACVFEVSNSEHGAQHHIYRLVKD
test_details: TEAD1-YAP HTRF (TR-FRET) protein-protein interaction assay
reported_conditions: TEAD1, YAP peptide 50-100, HTRF; read-out: TEAD1 YAP50-100 HTRF combined: EC50
# value in nM; strip the unit string

Answered cases to consult:
Data request: Which measured EC50 value corresponds to CN(C)C(=O)c1nn2c(=O)cc(-c3ccc(C4CCCCC4)c(F)c3)[nH]c2c1C(=O)N1CC(CF)C1 ?
Data returned: 40

Data request: Reported EC50, compound C[C@H]1[C@@H](CF)CN1C(=O)c1c(C(=O)N(C)C)nn2c(=O)cc(-c3ccc(C4CCCCC4)cc3)[nH]c12 : ____
Data returned: 80

Data request: Item CN(C)C(=O)c1nn2c(=O)cc(-c3ccc(C4CCCCC4)cc3)[nH]c2c1C(=O)N1CC(CF)C1 has what recorded EC50?
Data returned: 90

Data request: Tell me the measured EC50 of Cc1c(-c2nn3c(=O)cc(-c4ccc(C5CCCCC5)cc4)[nH]c3c2C(=O)N2CC(CF)C2)ncn1C , please.
Data returned: 70

Data request: Query (compound): CC(C)c1ccc(COc2cc(=O)n3nc(-c4cnccn4)c(C(=O)N4CC(CF)C4)c3[nH]2)cc1 ; field requested: EC50
Data returned: 50

Data request: Which EC50 value belongs to Cc1nccnc1-c1nn2c(=O)cc(-c3ccc(O[C@H](c4ccccc4)C(F)(F)F)cc3)[nH]c2c1C(=O)N1CC(CF)C1 ?
Data returned: 190

Data request: Data request, read-out EC50, for Cc1nccnc1-c1nn2c(=O)cc(-c3ccc(O[C@@H](c4ccccc4)C(F)(F)F)cc3)[nH]c2c1C(=O)N1CC(CF)C1
Data returned: 190

Data request: Which EC50 is reported for this compound? CCCCc1ccc(-c2cc(=O)n3nc(-c4nccnc4C)c(C(=O)N4CC(CF)C4)c3[nH]2)cc1
Data returned: 40

New cases:
Data request: Fill in the blank: the reported EC50 of Cc1ccnc(-c2nn3c(=O)cc(-c4ccc(C5CCCCC5)cc4)[nH]c3c2C(=O)N2CC(CF)C2)c1 is ____.
Data returned: 50

Data request: Endpoint output: EC50 of Cc1nccnc1-c1nn2c(=O)cc(-c3ccc(C4CCCCC4)cc3)[nH]c2c1C(=O)N1C[C@H](CF)[C@@H]1C (single isomer, unassigned) [Isomer B, Example 41] . Value?
Data returned: 80

Data request: Find the recorded EC50 belonging to C[C@@H]1[C@H](CF)CN1C(=O)c1c(-c2cnccn2)nn2c(=O)cc(-c3ccc(C4CCCCC4)cc3)[nH]c12 (single isomer, unassigned) [Isomer B, Example 39] and report it.
Data returned: 170

Data request: Sample COc1ccnc(-c2nn3c(=O)cc(-c4ccc(C5CCCCC5)cc4)[nH]c3c2C(=O)N2CC(CF)C2)n1 — what was its EC50?
Data returned: 30

---

target: TEAD3 TAZ (amino acids 13-57) (Homo sapiens)
Sequence (Q99594 173-435 limits assumed): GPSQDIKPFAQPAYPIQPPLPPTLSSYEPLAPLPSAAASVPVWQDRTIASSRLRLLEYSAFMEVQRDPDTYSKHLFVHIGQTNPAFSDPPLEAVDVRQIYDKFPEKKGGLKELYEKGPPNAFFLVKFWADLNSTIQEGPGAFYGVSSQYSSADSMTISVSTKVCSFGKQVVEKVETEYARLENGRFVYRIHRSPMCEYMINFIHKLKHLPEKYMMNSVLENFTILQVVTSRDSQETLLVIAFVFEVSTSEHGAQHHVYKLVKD
test_details: TEAD3-TAZ HTRF (TR-FRET) protein-protein interaction assay
Assay type: binding
reported_conditions: TEAD3, TAZ peptide, HTRF
measured_parameter: TEAD3 TAZ HTRF combined: Max % Inhibition
Answer with the number, then the unit.

Data request: Would you mind telling me what TEAD3 TAZ HTRF combined: Max % Inhibition value was observed for CCCCc1ccc(-c2cc(=O)n3nc(-c4nccnc4C)c(C(=O)N4CC(CF)C4)c3[nH]2)cc1 ?
Data returned: 58.5%

Data request: // query TEAD3 TAZ HTRF combined: Max % Inhibition value for entry Cc1nccnc1-c1nn2c(=O)cc(-c3ccc(C4CCCCC4)cc3)[nH]c2c1C(=O)N1C[C@H](CF)[C@@H]1C (single isomer, unassigned) [Isomer B, Example 41]
Data returned: 73.8%

Data request: Given the compound CN(C)C(=O)c1nn2c(=O)cc(-c3ccc(C4CCCCC4)c(F)c3)[nH]c2c1C(=O)N1CC(CF)C1 , what is its reported TEAD3 TAZ HTRF combined: Max % Inhibition?
Data returned: 59.0%

Data request: I would be grateful if you could share the reported TEAD3 TAZ HTRF combined: Max % Inhibition for CC1CCN1C(=O)c1nn2c(=O)cc(-c3ccc(C4CCCCC4)cc3)[nH]c2c1C(=O)N1CC(CF)C1 (single isomer, unassigned) [Enantiomer B, Example 33] .
Data returned: 58.5%

Data request: Need TEAD3 TAZ HTRF combined: Max % Inhibition, item Cc1nccnc1-c1nn2c(=O)cc(-c3ccc(C(F)(F)C4CCCC4)cc3)[nH]c2c1C(=O)N1CC(CF)C1
Data returned: 43.0%

Data request: What value of measured TEAD3 TAZ HTRF combined: Max % Inhibition is listed for O=C(c1c(-c2ncccn2)nn2c(=O)cc(-c3ccc(C4CCCCC4)c(F)c3)[nH]c12)N1CC(CF)C1 ?
Data returned: 57.0%

Data request: Query: TEAD3 TAZ HTRF combined: Max % Inhibition; subject: Cc1nccnc1-c1nn2c(=O)cc(-c3ccc(C4CCCCC4)cc3)[nH]c2c1C(=O)N(C)C
Data returned: 56.5%

Data request: Quick check: TEAD3 TAZ HTRF combined: Max % Inhibition of Cc1c(-c2nn3c(=O)cc(-c4ccc(C5CCCCC5)cc4)[nH]c3c2C(=O)N2CC(CF)C2)ncn1C ?
Data returned: 51.5%

Data request: I'd like to know its TEAD3 TAZ HTRF combined: Max % Inhibition. The compound in question is Cc1ccnc(-c2nn3c(=O)cc(-c4ccc(C5CCCCC5)cc4)[nH]c3c2C(=O)N2CC(CF)C2)n1
Data returned: 52.5%

Data request: What value of measured TEAD3 TAZ HTRF combined: Max % Inhibition is listed for CC(C)(C)c1ccc(COc2cc(=O)n3nc(-c4cnccn4)c(C(=O)N4CC(CF)C4)c3[nH]2)cc1 ?
Data returned: 46.0%
